Test system: 695427-040-R-J1-PDC complex spheroids, viability percent T/C
Assay Protocol: Anticancer human tumor 695427-040-R-J1-PDC patient-derived colon adenocarcinoma cell line growth inhibition [GQUAD]
Study Conditions: second compound 0.0316 µM; first compound 0.0316 µM; hits give low values
For each record, write down the corresponding viability, T/C.

The compound listed as O=C(NO)c1cnc(N2CCN(S(=O)(=O)c3ccc4ccccc4c3)CC2)nc1 + CN(C)c1ccc(Nc2c3ccc(NC(=O)CCN4CCCC4)cc3nc3cc(NC(=O)CCN4CCCC4)ccc23)cc1 shows viability, T/C equal to 98.9%

The compound listed as CCc1c2c(nc3ccc(O)cc13)-c1cc3c(c(=O)n1C2)COC(=O)[C@]3(O)CC + Cc1cnc(CNC(=O)c2c(=O)c3ccc(N4CCCN(C)CC4)nc3n3c2sc2ccccc23)cn1 shows viability, T/C equal to 57.9%

The compound listed as O=c1[nH]cc(F)c(=O)[nH]1 + Cc1cnc(CNC(=O)c2c(=O)c3ccc(N4CCCN(C)CC4)nc3n3c2sc2ccccc23)cn1 shows viability, T/C equal to 108%

The compound listed as COc1cccc2c1C(=O)c1c(O)c3c(c(O)c1C2=O)CC(O)(C(=O)CO)CC3OC1CC(N)C(O)C(C)O1 (centres undefined) + Cc1cnc(CNC(=O)c2c(=O)c3ccc(N4CCCN(C)CC4)nc3n3c2sc2ccccc23)cn1 shows viability, T/C equal to 96.5%

====

Test system: 695427-040-R-J1-PDC complex spheroids, viability percent T/C
Assay Protocol: Anticancer human tumor 695427-040-R-J1-PDC cell line growth inhibition [GQUAD];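 further: spheroids exposed to compounds for seven days before readout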
Study Conditions: second compound 0.1 µM; first compound 0.0316 µM; hits give low values
Measured Quantity: viability, T/C (%)
Lab book: enter the figure in %, no units written.

The compound listed as CCc1c2c(nc3ccc(O)cc13)-c1cc3c(c(=O)n1C2)COC(=O)[C@]3(O)CC + Cc1[nH]c2ccc(F)cc2c1-c1nc2c3cccnc3c3ncccc3c2[nH]1 shows viability, T/C equal to 57.7

The compound listed as O=c1[nH]cc(F)c(=O)[nH]1 + Cc1cnc(CNC(=O)c2c(=O)c3ccc(N4CCCN(C)CC4)nc3n3c2sc2ccccc23)cn1 shows viability, T/C equal to 94.2

The compound listed as COc1cccc2c1C(=O)c1c(O)c3c(c(O)c1C2=O)CC(O)(C(=O)CO)CC3OC1CC(N)C(O)C(C)O1 (stereo not given) + CN(C)c1ccc(Nc2c3ccc(NC(=O)CCN4CCCC4)cc3nc3cc(NC(=O)CCN4CCCC4)ccc23)cc1 shows viability, T/C equal to 102

The compound listed as COc1cccc2c1C(=O)c1c(O)c3c(c(O)c1C2=O)CC(O)(C(=O)CO)CC3OC1CC(N)C(O)C(C)O1 (stereo not given) + Cc1[nH]c2ccc(F)cc2c1-c1nc2c3cccnc3c3ncccc3c2[nH]1 shows viability, T/C equal to 104

The compound listed as CCCS(=O)(=O)Nc1ccc(F)c(C(=O)c2c[nH]c3ncc(-c4ccc(Cl)cc4)cc23)c1F + CN(C)c1ccc(Nc2c3ccc(NC(=O)CCN4CCCC4)cc3nc3cc(NC(=O)CCN4CCCC4)ccc23)cc1 shows viability, T/C equal to 103

====

For each record, write down the corresponding viability, T/C.
System: 695427-040-R-J1-PDC complex spheroids, viability percent T/C
Assay Protocol: Anticancer human tumor 695427-040-R-J1-PDC cell line growth inhibition [GQUAD];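 further: spheroids exposed to compounds for seven days before readout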
Study Conditions: second compound 0.1 µM; first compound 0.1 µM; hits give low values
Text: DNA G-quadruplex Stabilizer Agents in Combinations in Complex Spheroids A high-throughput screen of multi-cell type tumor spheroids was designed to identify active combinations of DNA G-quadruplex stabilizer agents and targeted small molecules. […] Compounds. […] If the clinical Cmax for an agent had not been determined, the highest concentration tested was 10 microM. […]
Lab book: enter the figure in %, no units written.

The compound CC1COCCN1c1cc(C2(O)CC3CCC(C2)O3)c2cnn(-c3ccn[nH]3)c2n1 (stereo not drawn) + CN(C)c1ccc(Nc2c3ccc(NC(=O)CCN4CCCC4)cc3nc3cc(NC(=O)CCN4CCCC4)ccc23)cc1 , tested on 695427-040-R-J1-PDC complex spheroids, viability percent T/C, showed viability, T/C of 81.9

The compound CC1COCCN1c1cc(C2(S(C)(=N)=O)CC2)nc(-c2ccnc3[nH]ccc23)n1 (stereo not drawn) + CN(C)c1ccc(Nc2c3ccc(NC(=O)CCN4CCCC4)cc3nc3cc(NC(=O)CCN4CCCC4)ccc23)cc1 , tested on 695427-040-R-J1-PDC complex spheroids, viability percent T/C, showed viability, T/C of 93.8

The compound CC(=O)O[C@H]1C(=O)[C@@]2(C)[C@H]([C@H](OC(=O)c3ccccc3)[C@]3(O)C[C@H](OC(=O)[C@H](O)[C@@H](NC(=O)c4ccccc4)c4ccccc4)C(C)=C1C3(C)C)[C@]1(OC(C)=O)CO[C@@H]1C[C@@H]2O + CN(C)c1ccc(Nc2c3ccc(NC(=O)CCN4CCCC4)cc3nc3cc(NC(=O)CCN4CCCC4)ccc23)cc1 , tested on 695427-040-R-J1-PDC complex spheroids, viability percent T/C, showed viability, T/C of 87.8

====

System: 695427-040-R-J1-PDC complex spheroids, viability percent T/C
Assay Protocol: Anticancer human tumor 695427-040-R-J1-PDC cell line growth inhibition [GQUAD];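 further: spheroids exposed to compounds for seven days before readout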
Study Conditions: second compound 1 µM; first compound 0.0999 µM; hits give low values
Measured Quantity: viability, T/C (%)
Lab book: enter the figure in %, no units written.

The compound CC[C@@]1(O)C(=O)OCc2c1cc1n(c2=O)Cc2cc3c(CN(C)C)c(O)ccc3nc2-1 + Cc1cnc(CNC(=O)c2c(=O)c3ccc(N4CCCN(C)CC4)nc3n3c2sc2ccccc23)cn1 , tested on 695427-040-R-J1-PDC complex spheroids, viability percent T/C, showed viability, T/C of 70.9

The compound Cn1ncnc1[C@H]1c2n[nH]c(=O)c3cc(F)cc(c23)N[C@@H]1c1ccc(F)cc1 + Cc1cnc(CNC(=O)c2c(=O)c3ccc(N4CCCN(C)CC4)nc3n3c2sc2ccccc23)cn1 , tested on 695427-040-R-J1-PDC complex spheroids, viability percent T/C, showed viability, T/C of 82.5

The compound Cc1[nH]c2ccccc2c1CCNCc1ccc(/C=C/C(=O)NO)cc1 + CN(C)c1ccc(Nc2c3ccc(NC(=O)CCN4CCCC4)cc3nc3cc(NC(=O)CCN4CCCC4)ccc23)cc1 , tested on 695427-040-R-J1-PDC complex spheroids, viability percent T/C, showed viability, T/C of 98

The compound CCc1c2c(nc3ccc(O)cc13)-c1cc3c(c(=O)n1C2)COC(=O)[C@]3(O)CC + Cc1[nH]c2ccc(F)cc2c1-c1nc2c3cccnc3c3ncccc3c2[nH]1 , tested on 695427-040-R-J1-PDC complex spheroids, viability percent T/C, showed viability, T/C of 52.5

The compound CC[C@@]1(O)C(=O)OCc2c1cc1n(c2=O)Cc2cc3c(CN(C)C)c(O)ccc3nc2-1 + CN(C)c1ccc(Nc2c3ccc(NC(=O)CCN4CCCC4)cc3nc3cc(NC(=O)CCN4CCCC4)ccc23)cc1 , tested on 695427-040-R-J1-PDC complex spheroids, viability percent T/C, showed viability, T/C of 97.8

====

Test system: 695427-040-R-J1-PDC complex spheroids, viability percent T/C
Assay Protocol: Anticancer human tumor 695427-040-R-J1-PDC cell line growth inhibition [GQUAD]; active = viability on the fitted dose curve at most 10% of control; inactive = the rest;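 further: spheroids exposed to compounds for seven days before readout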
Study Conditions: second compound 3.16 µM; first compound 3.16 µM
Outcome field: choose from active, inactive

Prompt: Outcome logged for CC1COCCN1c1cc(C2(S(C)(=N)=O)CC2)nc(-c2ccnc3[nH]ccc23)n1 (stereo unspecified) + Cc1[nH]c2ccc(F)cc2c1-c1nc2c3cccnc3c3ncccc3c2[nH]1 in this assay:
Completion: inactive

Prompt: Outcome logged for O=C(c1cc(Cc2n[nH]c(=O)c3ccccc23)ccc1F)N1CCN(C(=O)C2CC2)CC1 + CN(C)c1ccc(Nc2c3ccc(NC(=O)CCN4CCCC4)cc3nc3cc(NC(=O)CCN4CCCC4)ccc23)cc1 in this assay:
Completion: inactive

Prompt: Outcome logged for O=C(NO)c1cnc(N2CCN(S(=O)(=O)c3ccc4ccccc4c3)CC2)nc1 + CN(C)c1ccc(Nc2c3ccc(NC(=O)CCN4CCCC4)cc3nc3cc(NC(=O)CCN4CCCC4)ccc23)cc1 in this assay:
Completion: active

Prompt: Outcome logged for CC1COCCN1c1cc(C2(O)CC3CCC(C2)O3)c2cnn(-c3ccn[nH]3)c2n1 (stereo unspecified) + Cc1[nH]c2ccc(F)cc2c1-c1nc2c3cccnc3c3ncccc3c2[nH]1 in this assay:
Completion: inactive

Prompt: Outcome logged for CC1COCCN1c1cc(C2(S(C)(=N)=O)CC2)nc(-c2ccnc3[nH]ccc23)n1 (stereo unspecified) + CN(C)c1ccc(Nc2c3ccc(NC(=O)CCN4CCCC4)cc3nc3cc(NC(=O)CCN4CCCC4)ccc23)cc1 in this assay:
Completion: inactive

Prompt: Outcome logged for CC1COCCN1c1cc(-c2ccnn2C)c2ccnc(-c3ccn[nH]3)c2n1 (stereo unspecified) + Cc1cnc(CNC(=O)c2c(=O)c3ccc(N4CCCN(C)CC4)nc3n3c2sc2ccccc23)cn1 in this assay:
Completion: inactive

Prompt: Outcome logged for COc1cccc2c1C(=O)c1c(O)c3c(c(O)c1C2=O)CC(O)(C(=O)CO)CC3OC1CC(N)C(O)C(C)O1 (stereo unspecified) + Cc1cnc(CNC(=O)c2c(=O)c3ccc(N4CCCN(C)CC4)nc3n3c2sc2ccccc23)cn1 in this assay:
Completion: inactive

Prompt: Outcome logged for CC1COCCN1c1cc(-c2ccnn2C)c2ccnc(-c3ccn[nH]3)c2n1 (stereo unspecified) + Cc1[nH]c2ccc(F)cc2c1-c1nc2c3cccnc3c3ncccc3c2[nH]1 in this assay:
Completion: inactive

Prompt: Outcome logged for COc1cc(C2c3cc4c(cc3C(OC3OC5COC(C)OC5C(O)C3O)C3COC(=O)C23)OCO4)cc(OC)c1O (stereo unspecified) + CN(C)c1ccc(Nc2c3ccc(NC(=O)CCN4CCCC4)cc3nc3cc(NC(=O)CCN4CCCC4)ccc23)cc1 in this assay:
Completion: inactive

Prompt: Outcome logged for CC1COCCN1c1cc(-c2ccnn2C)c2ccnc(-c3ccn[nH]3)c2n1 (stereo unspecified) + CN(C)c1ccc(Nc2c3ccc(NC(=O)CCN4CCCC4)cc3nc3cc(NC(=O)CCN4CCCC4)ccc23)cc1 in this assay:
Completion: inactive

Prompt: Outcome logged for COc1cccc2c1C(=O)c1c(O)c3c(c(O)c1C2=O)CC(O)(C(=O)CO)CC3OC1CC(N)C(O)C(C)O1 (stereo unspecified) + CN(C)c1ccc(Nc2c3ccc(NC(=O)CCN4CCCC4)cc3nc3cc(NC(=O)CCN4CCCC4)ccc23)cc1 in this assay:
Completion: inactive
